biological target: KRAS G13D (Homo sapiens (Human), UniProt P01116+P62937, G13D); test: Ras-Raf (BRAF RBD) disruption / FRET / MOA assay, KRAS G13D; type: biochemical; conditions: read-out: IC50* KRAS G13D FRET data
Sequence (P01116-2 other isoform, or with tags, fused parts or gaps G13D): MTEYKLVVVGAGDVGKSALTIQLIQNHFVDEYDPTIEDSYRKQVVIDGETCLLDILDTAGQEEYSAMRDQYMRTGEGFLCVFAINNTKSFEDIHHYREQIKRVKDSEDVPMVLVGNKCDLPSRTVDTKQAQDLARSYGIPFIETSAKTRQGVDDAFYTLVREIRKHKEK
Sequence (P62937 whole entry): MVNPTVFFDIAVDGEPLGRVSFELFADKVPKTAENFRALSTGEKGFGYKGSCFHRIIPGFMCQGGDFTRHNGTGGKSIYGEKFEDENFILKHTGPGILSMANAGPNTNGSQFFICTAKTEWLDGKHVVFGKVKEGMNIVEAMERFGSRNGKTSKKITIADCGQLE
MEASURED_ENDPOINT: IC50

Query IC50 for C=CC(=O)N1CC[C@H](C(=O)N(C)[C@H](C(=O)N[C@H]2Cc3cccc(c3)-c3ccc4c(c3)c(c(-c3cccnc3[C@H](C)OC)n4CC)CC(C)(C)COC(=O)[C@@H]3CCCN(N3)C2=O)C(C)(C)F)C1 (atropisomer, axis not shown)
1000 to 10000 nM

Query IC50 for C=CC(=O)N1CC[C@H](C(=O)N(C)[C@H](C(=O)N[C@H]2Cc3cccc(c3)-c3ccc4c(c3)c(c(-c3cc(C5CCN(C)CC5)cnc3[C@H](C)OC)n4CC)CC(C)(C)COC(=O)[C@@H]3CCCN(N3)C2=O)C(C)C)C1 (atropisomer, axis not shown) [Example A515]
1000 to 10000 nM

Query IC50 for C=CC(=O)N(C)[C@@H]1C[C@@H](C)N(C(=O)N(C)[C@H](C(=O)N[C@H]2Cc3nc(cs3)-c3ccc4c(c3)c(c(-c3cccnc3[C@H](C)OC)n4CC)CC(C)(C)COC(=O)[C@@H]3CCCN(N3)C2=O)C(C)C)C1 (atropisomer, axis not shown)
1000 to 10000 nM

Query IC50 for C=CC(=O)N1CCN(C(=O)N(C)[C@H](C(=O)N[C@H]2Cc3nc(cs3)-c3ccc4c(c3)c(c(-c3cccnc3[C@H](C)OC)n4CC)CC(C)(C)COC(=O)[C@@H]3CCCN(N3)C2=O)C(C)C)[C@H]2CC[C@H]21 (atropisomer, axis not shown)
100 to 1000 nM

Query IC50 for CO[C@@H](C)c1ncccc1-c1c2c3cc(ccc3n1CC(F)(F)F)-c1nc(ns1)C[C@H](NC(=O)[C@@H](COC1CN(C(=O)C#CC(C)(C)N(C)C)C1)C(C)C)C(=O)N1CCC[C@H](N1)C(=O)OCC(C)(C)C2 (atropisomer, axis not shown)
> 10000 nM

Query IC50 for CCn1c(-c2cccnc2COC)c2c3cc(ccc31)-c1cc(O)cc(c1)C[C@H](NC(=O)[C@H](C(C)C)N(C)C(=O)[C@H]1CCN(C(=O)/C=C/CN3CCOCC3)C1)C(=O)N1CCC[C@H](N1)C(=O)OCC(C)(C)C2
1000 to 10000 nM

Query IC50 for CCn1c(-c2cccnc2)c2c3cc(ccc31)-c1cccc(c1)C[C@H](NC(=O)[C@H](C(C)C)N(C)C(=O)[C@H]1CCN(C(=O)C#CCN3CCOCC3)C1)C(=O)N1CCC[C@H](N1)C(=O)OCC(C)(C)C2
> 10000 nM

Query IC50 for C=C(F)C(=O)N1CC2(CCN(C(=O)N(C)[C@H](C(=O)N[C@H]3Cc4nc(cs4)-c4ccc5c(c4)c(c(-c4cccnc4[C@H](C)OC)n5CC)CC(C)(C)COC(=O)[C@@H]4CCCN(N4)C3=O)C(C)C)CC2)C1 (atropisomer, axis not shown)
100 to 1000 nM
